# Study Target: Mannose-6-phosphate isomerase (Homo sapiens) (UniProt P34949)
# Sequence (P34949 whole entry, looked up): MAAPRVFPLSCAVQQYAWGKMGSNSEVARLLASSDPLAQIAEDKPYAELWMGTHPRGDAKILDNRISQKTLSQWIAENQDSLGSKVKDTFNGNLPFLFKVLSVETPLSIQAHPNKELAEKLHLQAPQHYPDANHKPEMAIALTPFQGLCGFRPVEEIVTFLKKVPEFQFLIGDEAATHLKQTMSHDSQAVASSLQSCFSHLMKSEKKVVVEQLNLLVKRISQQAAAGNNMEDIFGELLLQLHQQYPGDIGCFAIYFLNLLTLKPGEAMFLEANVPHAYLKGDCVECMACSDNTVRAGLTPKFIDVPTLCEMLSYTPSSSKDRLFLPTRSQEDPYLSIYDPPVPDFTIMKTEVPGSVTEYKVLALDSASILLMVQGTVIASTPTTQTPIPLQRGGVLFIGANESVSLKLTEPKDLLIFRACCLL
# Test Protocol: inhibitors of human PMI, primary screen, biochemical, fluorescence intensity, coupled assay (AID 1209);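 also: plate controls were DMSO vehicle for no effect and wells lacking substrate for full effect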
# Experimental Setup: purified PMI enzyme, at 20 µM
Hit rate of the full screen: of about 190,000 compounds, about 810 (0.43%) were called active. Rule as the data show it: active = inhibition above about 50%; inactive = the rest. The entries come from a sample that favours actives as a whole.
Outcomes: true for active, false for inactive

{"columns": ["Chemical Structure", "Label Value"],
 "data": [
  ["COc1ccc(OC)c(N=c2ssnc2Cl)c1", "true"],
  ["CC(C)[C@H](NC(=O)c1ccccc1)C(=O)OCC(=O)N1CC(=O)Nc2ccccc21", "false"],
  ["COc1ccc(OC)c(N=C(N)N=C(N)N)c1", "false"],
  ["COc1cc(N)c(Cl)cc1Cl", "false"],
  ["COCC(=O)Nc1nc2ccc(C)cc2s1", "false"]
]}

###

# Study Target: Mannose-6-phosphate isomerase (Homo sapiens)
# Test Protocol: inhibitors of human PMI, primary screen, biochemical, fluorescence intensity, coupled assay (AID 1209);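 also: plate controls were DMSO vehicle for no effect and wells lacking substrate for full effect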
# Experimental Setup: purified PMI enzyme, at 20 µM
Out of some 190,000 compounds screened, about 810 (0.43%) were called active. No stated cut-off is given here; in the data, active means inhibition above about 50%; inactive means the rest. The sample as a whole holds a higher share of actives than the screen did.
Labels: yes (1) (active), no (0) (inactive)

{"columns": ["Compound", "Study Target", "Label Value"],
 "data": [
  ["O=C(O[C@@H]1Cc2c(O)cc(O)cc2O[C@@H]1c1cc(O)c(O)c(O)c1)c1cc(O)c(O)c(O)c1", "Mannose-6-phosphate isomerase (Homo sapiens)", "yes (1)"],
  ["CCOC(=O)C1=C(C)Nc2ccccc2N=C1NC(=O)/C=C/c1ccc(OC)cc1OC", "Mannose-6-phosphate isomerase (Homo sapiens)", "no (0)"],
  ["COCCCNC(=S)N1CCN(c2ccc([N+](=O)[O-])cc2)CC1", "Mannose-6-phosphate isomerase (Homo sapiens)", "no (0)"],
  ["O=C(c1ccc(OCC2CCCO2)cc1)N1CCc2ccccc2C1 (configuration not stated)", "Mannose-6-phosphate isomerase (Homo sapiens)", "no (0)"],
  ["O=[N+]([O-])c1cc2oc3c(c2c(C=NCc2ccncc2)c1O)CCCC3", "Mannose-6-phosphate isomerase (Homo sapiens)", "no (0)"],
  ["CC1(C)NC(=O)N(CCOCCOc2ccccc2-c2ccccc2)C1=O", "Mannose-6-phosphate isomerase (Homo sapiens)", "no (0)"],
  ["CCOC(=O)C1=C(C)Nc2ccccc2N=C1NC(=O)Cc1ccc(OC)cc1", "Mannose-6-phosphate isomerase (Homo sapiens)", "no (0)"],
  ["OCCCc1ccc(O)c(O)c1", "Mannose-6-phosphate isomerase (Homo sapiens)", "no (0)"],
  ["Cc1nnsc1SCC(=O)O", "Mannose-6-phosphate isomerase (Homo sapiens)", "no (0)"],
  ["COC(=O)c1c(NC(=O)c2cccnc2)sc(C)c1C", "Mannose-6-phosphate isomerase (Homo sapiens)", "no (0)"],
  ["CC(C)CN=Cc1c(O)c([N+](=O)[O-])cc2oc3c(c12)CCCC3", "Mannose-6-phosphate isomerase (Homo sapiens)", "yes (1)"],
  ["CC1(C)CC(N2CCCC2)=CC(=[N+]2CCCCCC2)C1", "Mannose-6-phosphate isomerase (Homo sapiens)", "yes (1)"],
  ["CC(C)(C)C1=Nn2c(nnc2-c2n[nH]c3c2CCC3)SC1", "Mannose-6-phosphate isomerase (Homo sapiens)", "yes (1)"],
  ["Clc1ccccc1Sc1cnc2ccccc2n1", "Mannose-6-phosphate isomerase (Homo sapiens)", "no (0)"],
  ["CCCC[n+]1c(C)sc2ccc(C)cc21", "Mannose-6-phosphate isomerase (Homo sapiens)", "yes (1)"],
  ["O=C(/C=C/c1ccc(Br)cc1)NC(=S)NNC(=O)c1ccco1", "Mannose-6-phosphate isomerase (Homo sapiens)", "no (0)"],
  ["CCC/C(O)=C1\\C(=O)CC(c2ccccc2)CC1=NC(C)C(=O)O (configuration not stated)", "Mannose-6-phosphate isomerase (Homo sapiens)", "no (0)"],
  ["Cc1ccc2sc(C)[n+](CCO)c2c1", "Mannose-6-phosphate isomerase (Homo sapiens)", "no (0)"],
  ["O=C(NC1CCCCC1)C(c1ccc(O)c(O)c1)N(C(=O)Cn1nnc2ccccc21)c1cccc(O)c1 (configuration not stated)", "Mannose-6-phosphate isomerase (Homo sapiens)", "no (0)"],
  ["CCOC(=O)Cc1cnc(N)s1", "Mannose-6-phosphate isomerase (Homo sapiens)", "no (0)"],
  ["c1ccc(C2=Nn3c(nnc3-c3n[nH]c4c3CCC4)SC2)cc1", "Mannose-6-phosphate isomerase (Homo sapiens)", "no (0)"],
  ["COc1ccc(S(=O)(=O)N2CCCC(C(=O)NCc3ccccn3)C2)cc1 (configuration not stated)", "Mannose-6-phosphate isomerase (Homo sapiens)", "no (0)"],
  ["COc1ccc(/C=N/NC(=O)c2nn(-c3ccccc3)c(=O)c3c(N)scc23)cc1", "Mannose-6-phosphate isomerase (Homo sapiens)", "yes (1)"],
  ["O=[N+]([O-])c1cc2oc3c(c2c(C=NCc2ccccc2)c1O)CCCC3", "Mannose-6-phosphate isomerase (Homo sapiens)", "no (0)"],
  ["O=C(O)CSc1ncccn1", "Mannose-6-phosphate isomerase (Homo sapiens)", "no (0)"],
  ["CC(C)N(CC#CC(O)(c1ccccc1)c1ccccc1)CCO", "Mannose-6-phosphate isomerase (Homo sapiens)", "no (0)"],
  ["COc1ccccc1Sc1ccccc1/C=N/NC(N)=O", "Mannose-6-phosphate isomerase (Homo sapiens)", "no (0)"],
  ["Cc1cccnc1NC(=O)C1CCN(S(=O)(=O)c2c(C)noc2/C=C/c2ccco2)CC1", "Mannose-6-phosphate isomerase (Homo sapiens)", "yes (1)"],
  ["Cc1nnsc1SC(C)C(=O)O (configuration not stated)", "Mannose-6-phosphate isomerase (Homo sapiens)", "yes (1)"],
  ["COc1ccc(NC(C)C(=O)N/N=C/c2cc(Br)ccc2OC)cc1 (configuration not stated)", "Mannose-6-phosphate isomerase (Homo sapiens)", "no (0)"],
  ["CCOC(=O)N1CCN(C(=O)CSc2ccc(-c3ccc(OC)cc3)nn2)CC1", "Mannose-6-phosphate isomerase (Homo sapiens)", "no (0)"],
  ["COc1ccc(/C=N/NC(=O)c2nn(-c3ccc(C)c(C)c3)c(=O)c3ccccc23)cc1", "Mannose-6-phosphate isomerase (Homo sapiens)", "no (0)"],
  ["COc1ccc(S(=O)(=O)N2CCCC(C(=O)NCc3ccccn3)C2)cc1Cl (configuration not stated)", "Mannose-6-phosphate isomerase (Homo sapiens)", "yes (1)"],
  ["Cc1sc2c3ccsc3ccc2[n+]1C", "Mannose-6-phosphate isomerase (Homo sapiens)", "no (0)"],
  ["CC[n+]1c(C)sc2c3ccsc3ccc21", "Mannose-6-phosphate isomerase (Homo sapiens)", "yes (1)"],
  ["O=C1CNC(=O)c2c(nc3n2CCC3)N1", "Mannose-6-phosphate isomerase (Homo sapiens)", "no (0)"],
  ["COc1ccc(S(=O)(=O)N2CCC(C(=O)NCc3ccccn3)CC2)cc1Cl", "Mannose-6-phosphate isomerase (Homo sapiens)", "no (0)"],
  ["CC(Sc1sc(=S)sc1SC(C)C(=O)O)C(=O)O (configuration not stated)", "Mannose-6-phosphate isomerase (Homo sapiens)", "no (0)"],
  ["Cc1ccc(NC(=O)C2CCN(S(=O)(=O)c3c(C)noc3/C=C/c3ccco3)CC2)nc1", "Mannose-6-phosphate isomerase (Homo sapiens)", "no (0)"],
  ["CC(=O)Nc1nc(NC(=O)/C=C/c2ccccc2)n(-c2ccccc2)n1", "Mannose-6-phosphate isomerase (Homo sapiens)", "no (0)"],
  ["CC(C)C(C(=O)OCC(=O)c1cccc([N+](=O)[O-])c1)N1C(=O)[C@@H]2[C@H]3CC[C@H](C3)[C@@H]2C1=O (some centres not stated)", "Mannose-6-phosphate isomerase (Homo sapiens)", "no (0)"],
  ["S=c1sc2c(Cl)ncnc2n1-c1ccccc1", "Mannose-6-phosphate isomerase (Homo sapiens)", "no (0)"]
]}
